target.entity: HIF-2α (Homo sapiens, UniProt Q99814)
Construct: host or cells: 786-O cells stably transduced with Cignal Lenti HIF Luc Reporter (only the reporter was introduced, not HIF-2α)
Sequence (Q99814 whole entry): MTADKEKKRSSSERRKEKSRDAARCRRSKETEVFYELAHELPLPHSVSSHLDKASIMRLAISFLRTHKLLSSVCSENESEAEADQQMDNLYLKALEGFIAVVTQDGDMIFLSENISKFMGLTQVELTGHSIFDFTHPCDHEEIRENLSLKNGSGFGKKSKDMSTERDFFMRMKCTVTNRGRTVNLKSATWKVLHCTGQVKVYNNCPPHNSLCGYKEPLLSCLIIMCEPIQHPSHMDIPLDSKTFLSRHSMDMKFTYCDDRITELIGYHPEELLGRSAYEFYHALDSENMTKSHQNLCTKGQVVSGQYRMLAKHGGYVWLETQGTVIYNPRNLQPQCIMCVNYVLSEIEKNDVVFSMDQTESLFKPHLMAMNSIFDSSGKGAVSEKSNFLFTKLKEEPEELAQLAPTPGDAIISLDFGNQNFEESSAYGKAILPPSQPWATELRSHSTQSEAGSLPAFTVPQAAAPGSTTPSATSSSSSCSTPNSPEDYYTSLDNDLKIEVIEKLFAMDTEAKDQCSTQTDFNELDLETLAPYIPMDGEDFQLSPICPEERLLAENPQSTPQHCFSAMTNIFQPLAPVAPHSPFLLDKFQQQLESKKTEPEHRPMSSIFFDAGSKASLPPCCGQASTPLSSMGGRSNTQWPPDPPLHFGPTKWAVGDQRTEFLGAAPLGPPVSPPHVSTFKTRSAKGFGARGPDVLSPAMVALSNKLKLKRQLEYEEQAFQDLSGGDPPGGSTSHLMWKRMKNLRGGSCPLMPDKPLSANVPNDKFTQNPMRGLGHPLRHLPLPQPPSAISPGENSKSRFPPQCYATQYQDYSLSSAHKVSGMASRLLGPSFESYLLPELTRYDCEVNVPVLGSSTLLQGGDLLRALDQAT
protocol.details: HIF-2α luciferase reporter assay in HIF-Luc-786-O cells
Format: cell-based
assay.context: Table 3, 20 hours incubation
pIC50: −log10 of the molar value.
pIC50 by entry:

// below: answered compounds
[[record]]
molecule_smiles = "N#Cc1cc(F)cc2c1[C@@H](c1ccc(-c3cccc4ncoc34)c3c1CC(F)(F)[C@H]3O)CC[C@@H]2F"
readout_value = "> 7.00"

[[record]]
molecule_smiles = "Cc1nc(C)c(-c2ccc([C@H]3CC[C@H](F)c4cc(F)cc(C#N)c43)c3c2[C@H](O)C(F)(F)C3)s1"
readout_value = "> 7.00"


Kindly consider the entry below.
Ask | Quick check: pIC50 of Cc1nc(N)ccc1-c1c(F)cc([C@H]2CC[C@H](F)c3cc(F)cc(C#N)c32)c2c1[C@H](O)C(F)(F)C2 ?
Reply | > 7.00
